We begin with a simple list: items and their reported IC50.
Target: recombinant SARS-CoV-2 RBD with C-terminal AviTag (SARS-CoV-2, UniProt P0DTC2 319-541)
Assay: ELISA, competition with coated ACE2-Fc for RBD [Cont. 4]
MEASUREMENT_KIND: IC50 (nM)

1) PP834 MBP-R5C-G2-H6 (VHH, Form: Monomer) VHH: QVQLVESGGGLVQPGGSLRLSCAASGSATSINRMAWVRQAPGKEREWVAVIDSGGYTYYADSVKGRFTISRDNAKNTVYLQMNSLKPEDTAVYYCNAVPVTTDKTPMYQYWGQGTQVTVSS :: 184
2) MBP-5HVZ-R5D-B5-H6 (VHH, dimer) VHH: QVQLVESGGGLVQPGGSLRLSCAASGSRDSIVAMHWYRQAPGKGREGVAGITSRWVTYYADSVKGRFTISRDNAKNTVYLQMNSLKPEDTAVYYCNAPVYYDTEWYDIWGQGTQVTVSS :: 53.7

Values compiled from patent US20240150440A1.
